So I've got a bunch of binders here, and I need their Ki hMC1-R/MC4-R values.
target: hMC1-R (human) (UniProt Q01726); assay: ratio Ki hMC1-R / Ki hMC4-R, same assay
Sequence (Q01726 whole entry): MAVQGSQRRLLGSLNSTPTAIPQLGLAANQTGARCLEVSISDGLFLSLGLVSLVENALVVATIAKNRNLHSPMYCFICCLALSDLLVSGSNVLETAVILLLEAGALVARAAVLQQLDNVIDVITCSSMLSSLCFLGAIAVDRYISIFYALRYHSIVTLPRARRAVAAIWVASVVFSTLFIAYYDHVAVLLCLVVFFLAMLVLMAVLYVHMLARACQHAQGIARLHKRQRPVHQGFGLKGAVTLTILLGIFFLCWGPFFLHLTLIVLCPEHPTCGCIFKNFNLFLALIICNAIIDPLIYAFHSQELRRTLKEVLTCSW
Bridge positions count the residues as written; N and C are the ends. Square brackets hold non-standard residues; d marks the D form. Ends that are not written are not given here. Bip = N[C@@H](Cc1ccc(-c2ccccc2)cc1)C(=O)O; 1Nal = N[C@@H](Cc1cccc2ccccc12)C(=O)O; d2Nal = N[C@H](Cc1ccc2ccccc2c1)C(=O)O; hArg = N=C(N)NCCCC[C@H](N)C(=O)O; Nle = CCCC[C@H](N)C(=O)O; βAla = NCCC(=O)O
Give bare numbers.

[[record]]
binder = "[dF]CH[dF]RW[βAla][dC]T-NH2 (disulfide 2-8; N-terminus assumed; SMILES C[C@@H](O)[C@H](NC(=O)[C@H]1CSSC[C@H](NC(=O)[C@H](N)Cc2ccccc2)C(=O)N[C@@H](Cc2c[nH]cn2)C(=O)N[C@H](Cc2ccccc2)C(=O)N[C@@H](CCCNC(=N)N)C(=O)N[C@@H](Cc2c[nH]c3ccccc23)C(=O)NCCC(=O)N1)C(N)=O) [D-Phe-c(Cys-His-D-Phe-Arg-Trp-β-Ala-D-Cys)-Thr-NH2]"
numeric_readout = 0.08

[[record]]
binder = "Ac-[Nle]C[dA]H[d2Nal]R[1Nal]C-NH2 (disulfide 2-8; SMILES CCCC[C@H](NC(C)=O)C(=O)N[C@H]1CSSC[C@@H](C(N)=O)NC(=O)[C@H](Cc2cccc3ccccc23)NC(=O)[C@H](CCCNC(=N)N)NC(=O)[C@@H](Cc2ccc3ccccc3c2)NC(=O)[C@H](Cc2c[nH]cn2)NC(=O)[C@@H](C)NC1=O) [Ac-Nle-c(Cys-D-Ala-His-D-2-Nal-Arg-1-Nal-Cys)-NH2]"
numeric_readout = 37.1

[[record]]
binder = "[dF]CH[d(Et)Tyr]RW[βAla][dC]T-NH2 (disulfide 2-8) [D-Phe-c(Cys-His-D-(Et)Tyr-Arg-Trp-β-Ala-D-Cys)-Thr-NH2]"
numeric_readout = 0


Then there is this binder:
Query string: Request the reported Ki hMC1-R/MC4-R associated with [dF]CH[dF][hArg][Bip][βAla][dC]T-NH2 (disulfide 2-8; N-terminus assumed; SMILES C[C@@H](O)[C@H](NC(=O)[C@H]1CSSC[C@H](NC(=O)[C@H](N)Cc2ccccc2)C(=O)N[C@@H](Cc2c[nH]cn2)C(=O)N[C@H](Cc2ccccc2)C(=O)N[C@@H](CCCCNC(=N)N)C(=O)N[C@@H](Cc2ccc(-c3ccccc3)cc2)C(=O)NCCC(=O)N1)C(N)=O) [D-Phe-c(Cys-His-D-Phe-hArg-Bip-β-Ala-D-Cys)-Thr-NH2]
Result string: 0.01
